Molecular target: SOS1 (Homo sapiens (Human), UniProt Q07889)
Sequence (Q07889 564-1049): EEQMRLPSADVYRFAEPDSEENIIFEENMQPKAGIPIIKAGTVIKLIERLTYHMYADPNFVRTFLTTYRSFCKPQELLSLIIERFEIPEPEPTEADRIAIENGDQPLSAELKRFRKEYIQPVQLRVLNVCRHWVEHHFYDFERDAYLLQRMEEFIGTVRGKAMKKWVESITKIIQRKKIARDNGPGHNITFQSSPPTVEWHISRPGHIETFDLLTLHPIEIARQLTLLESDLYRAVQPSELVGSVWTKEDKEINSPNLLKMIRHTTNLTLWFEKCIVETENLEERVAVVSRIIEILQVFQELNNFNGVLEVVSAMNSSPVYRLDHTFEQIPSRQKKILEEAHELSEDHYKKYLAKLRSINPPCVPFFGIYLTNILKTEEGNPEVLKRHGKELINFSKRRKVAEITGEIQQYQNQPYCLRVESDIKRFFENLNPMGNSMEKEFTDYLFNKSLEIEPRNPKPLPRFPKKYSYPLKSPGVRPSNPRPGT
Test: Ras-SOS interaction assay (HTRF), K-Ras G13D utilized
Assay type: binding
Details: K-Ras G13D, read-out: SOS1 IC50
The molecules listed here are annotated with their IC50.

Below, each entry is followed by its recorded IC50 result.
C[C@H]1Nc2nc(=O)n(c3c2cc(C2(C#N)CC2)c(=O)n3C)C/C=C\COCC(F)(F)c2cccc1c2F [Compound 66]    100 to 5000 nM
Cc1nc2c3cc(C4CCS(=O)(=O)CC4)c(=O)n(c3n1)CCCCC/C=C\CC(C)(O)C(F)(F)c1cccc(c1)[C@@H](C)N2 (stereo partly shown) [Compound 101]    < 100 nM
C[C@H]1Nc2ncnc3c2cc(C2(C#N)CCS(=O)(=O)CC2)c(=O)n3CCCCCCN2CCC(CC2)CC(F)(F)c2cccc1c2F [Compound 23]    < 100 nM

Returns the measured IC50 for the input molecule. Input: CC1C/C=C\CCn2c(=O)c(C3CCS(=O)(=O)CC3)cc3c(ncnc32)N[C@H](C)c2cccc(c2F)C(F)(F)C2CCN(CC2)C1 (stereo partly shown) [Compound 107]
< 100 nM

====

Target: SOS1 (Homo sapiens (Human), UniProt Q07889)
Test: Ras-SOS interaction assay (HTRF), K-Ras G13D utilized
Format: binding
Conditions: K-Ras G13D, read-out: SOS1 IC50
The compounds listed here are annotated with their IC50.

Below, each entry is followed by its recorded IC50 result.
C[C@H]1Nc2ncnc3c2cc(C2CCS(=O)(=O)CC2)c(=O)n3CCCCCC(C)(C)CN2CCC(CC2)C(F)(F)c2cccc1c2    < 0.1 µM
C[C@H]1Nc2ncnc3cc(c(N4CCS(=O)(=O)CC4)cc23)OCCCCOCCCN2CCC(CC2)C(F)(F)c2cccc1c2    < 0.1 µM
C[C@H]1Nc2ncnc3c2cc(N2CCS(=O)(=O)CC2)c(=O)n3CCCOCCCCN2CC(C2)CC(F)(F)c2cccc1c2    < 0.1 µM
Cc1nc2c3cc(C4(C#N)CC4)c(=O)n(c3n1)CCCCCCCOCC(F)(F)c1cccc(c1F)[C@@H](C)N2    0.1 to 5 µM
C[C@H]1Nc2ncnc3c2cc(C2CCS(=O)(=O)CC2)c(=O)n3CCCCn2cc(nn2)CN2CCC(CC2)C(F)(F)c2cccc1c2F    < 0.1 µM
C[C@H]1Nc2ncnc3c2cc(C2(C#N)CC2)c(=O)n3CCCCC/C=C\CN2CCC(CC2)C(F)(F)c2cccc1c2    < 0.1 µM
C[C@H]1Nc2nc(=O)n(c3c2cc(C2(C#N)CC2)c(=O)n3C)CCCC/C=C\COCC(F)(F)c2cccc1c2F    0.1 to 5 µM
COc1cc2nc(C)nc3c2cc1OCCOCCOCCOCCOCCNC(=O)CCCCNCc1ccccc1C1=CC=C(S1)C(C)N3 (stereo not drawn)    < 0.1 µM
C[C@H]1Nc2ncnc3c2cc(N2CCN(C4CCOCC4)CC2)c(=O)n3CCCCCCCN2CCC(CC2)C(F)(F)c2cccc1c2F    < 0.1 µM
C[C@H]1Nc2ncnc3c2cc(C2(C#N)CC2)c(=O)n3CCCCn2cc(nn2)CN2CCC(CC2)C(F)(F)c2cccc1c2    < 0.1 µM

Returns the measured IC50 for the input compound. Input: C[C@@H]1CCCNC(=O)Cn2c(=O)c(C3(C#N)CC3)cc3c(ncnc32)N[C@H](C)c2cccc(c2F)C(F)(F)C2CCN1CC2
< 0.1 µM

Returns the measured IC50 for the input compound. Input: Cc1nc2c3cc(C4(C#N)CC4)c(=O)n(c3n1)CCCCCC/C=C\CC(C)(O)C(F)(F)c1cccc(c1)[C@@H](C)N2 (stereo partly drawn)
0.1 to 5 µM

Returns the measured IC50 for the input compound. Input: Cc1nc2c3cc(C4CCS(=O)(=O)CC4)c(=O)n(c3n1)CCCC/C=C\CN1CCC(CC1)C(F)(F)c1cccc(c1)[C@@H](C)N2
< 0.1 µM

Returns the measured IC50 for the input compound. Input: C[C@H]1Nc2ncnc3c2cc(N2CCN(C4COC4)CC2)c(=O)n3CCCCCCCN2CCC(CC2)C(F)(F)c2cccc1c2F
< 0.1 µM

Returns the measured IC50 for the input compound. Input: C[C@H]1Nc2ncnc3c2cc(N2CCN(C)CC2)c(=O)n3CCCCCCCN2CCC(CC2)C(F)(F)c2cccc1c2F
< 0.1 µM

Returns the measured IC50 for the input compound. Input: CC(C)N1CCN(c2cc3c4ncnc3n(c2=O)CCCOCCCCN2CCC(CC2)C(F)(F)c2cccc(c2F)[C@@H](C)N4)CC1
< 0.1 µM

Returns the measured IC50 for the input compound. Input: C[C@H]1Nc2ncnc3c2cc(C2(C#N)CC2)c(=O)n3CCCC/C=C/CN2CCC(CC2(C)C)C(F)(F)c2cccc1c2 (stereo partly drawn)
< 0.1 µM
